- Study Target: Omomyc (synthetic or recombinant) (UniProt P01106 365-454, E425T;E432I;R438Q;R439N)
- Test Description: fluorescence polarization; table heading: affinity; FP: 10 mM Tris-HCl, 50 mM KCl, 1 mM EDTA, 5 mM MgCl2, 10 mM DTT, 2 nM DNA stock mixed 20 ul + 20 ul protein, 30 min, pH and temperature not stated; pulldown: 50 mM Tris-HCl pH 7.5, 5% glycerol, 1.5 mM MgCl2, 150 mM NaCl, 1 mM DTT, IGEPAL, 4 C
- Assay Setup: chain copies: 2; blunt
Attribute Measured: pKd
Would you please state pKd, meaning minus log10 of the concentration in mol/L, as a bare number?

Sure, the documented pKd for E box DNA (FP probe) (dsDNA) DNA 1: CCCCCACCACGTGGTGCCTGA DNA 2: TCAGGCACCACGTGGTGGGGG is 6.97
